Provide the reported AC50 of each item.
test-system: UniProt P08684
Sequence (P08684 whole entry): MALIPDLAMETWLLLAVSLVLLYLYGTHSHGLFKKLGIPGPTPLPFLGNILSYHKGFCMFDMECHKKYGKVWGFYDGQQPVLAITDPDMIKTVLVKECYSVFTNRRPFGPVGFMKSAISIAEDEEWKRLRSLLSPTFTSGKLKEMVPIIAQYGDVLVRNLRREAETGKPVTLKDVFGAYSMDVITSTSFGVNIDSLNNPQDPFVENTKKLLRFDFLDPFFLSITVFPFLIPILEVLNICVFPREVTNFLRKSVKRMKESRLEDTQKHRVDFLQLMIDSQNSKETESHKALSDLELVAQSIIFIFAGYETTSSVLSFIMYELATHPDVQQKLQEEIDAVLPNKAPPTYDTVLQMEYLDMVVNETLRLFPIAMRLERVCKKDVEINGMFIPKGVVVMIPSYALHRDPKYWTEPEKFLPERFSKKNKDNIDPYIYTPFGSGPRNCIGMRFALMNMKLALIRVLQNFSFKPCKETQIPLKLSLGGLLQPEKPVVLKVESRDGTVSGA

Lab note: each compound below needs its AC50 filled in.
1. CN(C)C(=O)c1ccc(-c2nc(Nc3ccc(F)cc3)c3ccccc3n2)cc1
2. CC1=NNC(=O)C1CCC(=O)N/N=C\c1ccccc1[N+](=O)[O-] (stereo not drawn)
3. CC(C)(C)OC(=O)N1CCCC1C(=O)NCCc1ccccc1 (stereo not drawn)

20 µM (inconclusive)
17.8 µM (inconclusive)
25.1 µM (inconclusive)

###

test-system: UniProtKB P41145
Sequence (P41145 whole entry): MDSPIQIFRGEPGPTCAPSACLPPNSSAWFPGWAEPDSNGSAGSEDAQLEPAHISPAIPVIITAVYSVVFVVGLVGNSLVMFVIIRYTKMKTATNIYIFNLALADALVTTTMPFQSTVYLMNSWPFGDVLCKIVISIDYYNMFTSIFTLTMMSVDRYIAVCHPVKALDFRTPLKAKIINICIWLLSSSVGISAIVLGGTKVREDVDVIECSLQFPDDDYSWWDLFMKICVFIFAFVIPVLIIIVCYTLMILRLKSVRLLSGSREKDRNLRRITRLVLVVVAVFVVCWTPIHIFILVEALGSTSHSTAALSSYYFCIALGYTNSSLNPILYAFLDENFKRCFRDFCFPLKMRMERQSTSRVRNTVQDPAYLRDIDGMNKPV
Assay type: functional
pIC50: −log10 of the molar value.
endpoint-name: pIC50

Give pIC50 (UniProtKB P41145) of the following compound: O=c1[nH]c(Nc2nc3ccccc3o2)nc2c1CCCC2 < 4.49

From: ChEMBL document CHEMBL1201862
